// hMAO A (Homo sapiens) IC50 records

sample-smiles: COCCN1CCN(CC(=O)Nc2ccc(C=CC(=O)c3ccc(OC)c(OC)c3)cc2)CC1
IC50: > 100 µM

sample-smiles: COc1ccc(C(=O)C=Cc2ccc(NC(=O)CN3CCN(CCCO)CC3)cc2)cc1OC
IC50: > 1000 µM

sample-smiles: COc1ccc(C(=O)C=Cc2ccc(NC(=O)CN3CCN(C(C)C)CC3)cc2)cc1OC
IC50: > 1000 µM

sample-smiles: COc1ccc(C(=O)C=Cc2ccc(NC(=O)CN3CCN(C)CC3)cc2)cc1OC
IC50: > 1000 µM

sample-smiles: COc1ccc(C(=O)C=Cc2ccc(NC(=O)CN3CCN(CCCN(C)C)CC3)cc2)cc1OC
IC50: > 100 µM

sample-smiles: COc1ccc(C(=O)C=Cc2ccc(NC(=O)CN3CCN(C4CCCC4)CC3)cc2)cc1OC
IC50: > 1000 µM

sample-smiles: C=CCN1CCN(CC(=O)Nc2ccc(C=CC(=O)c3ccc(OC)c(OC)c3)cc2)CC1
IC50: > 100 µM

sample-smiles: COc1ccc(C(=O)C=Cc2ccc(NC(=O)CN3CCN(C(C)=O)CC3)cc2)cc1OC
IC50: > 100 µM
